Entries and their Affinity increase values follow.
# TESTED_ON: T1, AFP158/HLA-A*02:01 complex (human)
# T1 construct: flowed over the chip in SPR; also called AFP158 pro
# PROTOCOL_NOTES: SPR, KD ratio to AS170036 VL1VH1;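 also: crude scFv captured on a sensor chip, peptide–HLA complex passed over at several concentrations, association then buffer dissociation, KD derived from on- and off-rates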
Write the number in fold without appending the unit.

* LH98N (scFv, AS170036 VL1VH1 scFv mutein) scFv: QSALTQPRSVSGSPGQSVTISCAGTSSDVGSENYVSWYQQHPGKAPKLMIYQVNKRASGVPDRFSGSKSGNTASLTISGLQAEDEADYYCASYRSSDNNIVFGGGTKLTVLGGGGSGGGGSGGGGSEVQLVESGGGLVQPGGSLRLSCAASGFTFSSYAMSWVRQAPGKGLEWVSTINSGTGSPYYADSVKGRFTISRDNSKNTLYLQMNSLRAEDTAVYYCAKNFFDGSWFLGPPAMDYWGQGTLVTVSSHHHHHH | 1.5

Now for a further binder.
Requested read-out: Affinity increase. Entry: LD97T (scFv, AS170036 VL1VH1 scFv mutein) scFv: QSALTQPRSVSGSPGQSVTISCAGTSSDVGSENYVSWYQQHPGKAPKLMIYQVNKRASGVPDRFSGSKSGNTASLTISGLQAEDEADYYCASYRSSTHNIVFGGGTKLTVLGGGGSGGGGSGGGGSEVQLVESGGGLVQPGGSLRLSCAASGFTFSSYAMSWVRQAPGKGLEWVSTINSGTGSPYYADSVKGRFTISRDNSKNTLYLQMNSLRAEDTAVYYCAKNFFDGSWFLGPPAMDYWGQGTLVTVSSHHHHHH
0.7
